Numbers sourced from paper PMC4850295.

Test system: GCaMP5-expressing T. gondii
Construct: whole extracellular parasites expressing GCaMP5 Ca2+ sensor
Parameters: species or system GCaMP5-expressing Toxoplasma gondii, extracellular; GCaMP5 fluorescence (cytosolic Ca2+) after 100 uM zaprinast in compound-pretreated extracellular parasites, background-subtracted, relative to zaprinast alone
experimental_parameters: 100 uM zaprinast stimulation; 10 min pretreatment; mean of two replicates; 0.23 h
Experimental: GCaMP5-expressing parasites were suspended in Ringer's solution at 4 × 10^7 parasites/ml, and 50 μl of parasites were applied to each well of a 96-well plate (Costar, catalog no. 3631). […] Parasites were then treated with 100 μM zaprinast or 0.1% DMSO as a vehicle control and incubated at 37 °C with 5% CO2 for an additional 4 min before measuring fluorescence with excitation and emission wavelengths of 485 and 525 nm, respectively, on a SpectraMax M3 (Molecular Devices). […]
# fold change in fluorescence relative to zaprinast alone annotations
I only need the number, thanks.

{"columns": ["molecule", "reported"],
 "data": [
  ["COC(=O)Nc1nc2ccc(Oc3ccc(NC(=O)Nc4cc(C(F)(F)F)ccc4F)cn3)cc2[nH]1 [GW681170A]", 1.637]
]}

Kindly note the recorded fold change in fluorescence relative to zaprinast alone for NS(=O)(=O)c1cccc(-c2cc3ccncc3cc2OCc2ccccc2)c1 [GSK980961A] , which is 0.9595

Notebook: NS(=O)(=O)c1cccc(-c2ccc3ncc(N4CCOCC4)nc3c2)c1 [GSK1535721A] , fold change in fluorescence relative to zaprinast alone read as 1.22

Given item COc1ccc(C2=C(Nc3cccc(O)c3)C(=O)NC2=O)cc1 [SB-390766] , the value recorded as its fold change in fluorescence relative to zaprinast alone is 1.133

# molecule COc1ccc(Nc2nccc(-c3ccc(NC(=O)c4cc5cc(F)ccc5[nH]4)cc3)n2)cc1 [GSK1229496A] ; its fold change in fluorescence relative to zaprinast alone = 1.727

Sure, the documented fold change in fluorescence relative to zaprinast alone for COc1ccccc1-c1ccc2c(NC(=O)C3CC3)n[nH]c2n1 [SB-711239] is 1.107

Entry FC(F)(F)c1ccc(/C=C/c2cncnc2Nc2ccc3nc(Cc4ccccc4)[nH]c3c2)cc1 [GW709199X] , fold change in fluorescence relative to zaprinast alone reported as 1.132

The molecule CN(C)c1ncnc2nc[nH]c12 [SKF-31736] showed fold change in fluorescence relative to zaprinast alone equal to 1.087

The measured fold change in fluorescence relative to zaprinast alone associated with COc1cc(Nc2nccc(-c3c(-c4cccc(NC(=O)c5c(F)cccc5F)c4)nn4ccccc34)n2)cc(OC)c1OC [GSK323521A] reads 1.412
